B1: library; a variant is named by its letters at X, in order (parent)
chain: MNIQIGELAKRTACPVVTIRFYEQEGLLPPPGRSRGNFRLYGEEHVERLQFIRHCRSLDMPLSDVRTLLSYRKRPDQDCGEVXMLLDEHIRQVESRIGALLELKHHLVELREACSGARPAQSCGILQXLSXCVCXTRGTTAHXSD

Variants of: B1
Test: sfGFP reporter fluorescence (15 h) (µM FITC); higher = higher leak
Conditions: library round: Round 2; ligand: none
Grouping by measured sfGFP reporter fluorescence is done with the following cut points: low interval: < 0.06; middle interval: ≥ 0.06 and < 0.1; high interval: ≥ 0.1

[[record]]
mutant_name = "TGCAP"
qualitative_label = "low interval"

[[record]]
mutant_name = "TGDDP D64E V108N"
qualitative_label = "low interval"

[[record]]
mutant_name = "NGDPP M84A R111A"
qualitative_label = "middle interval"

[[record]]
mutant_name = "NIDDP P61N C134E"
qualitative_label = "high interval"

[[record]]
mutant_name = "NPDAP I90L"
qualitative_label = "low interval"

[[record]]
mutant_name = "NMDDP I3M P61N K104V L107C"
qualitative_label = "high interval"

[[record]]
mutant_name = "TGDRP L107C"
qualitative_label = "high interval"

[[record]]
mutant_name = "NGDAP L129I H142A"
qualitative_label = "low interval"

[[record]]
mutant_name = "NADAP K104R"
qualitative_label = "high interval"

[[record]]
mutant_name = "NGCDP P61N H106A"
qualitative_label = "middle interval"

[[record]]
mutant_name = "TGDDP R96A K104V"
qualitative_label = "low interval"

[[record]]
mutant_name = "NGDDP P61N L107C E109H"
qualitative_label = "high interval"

[[record]]
mutant_name = "SGDAA"
qualitative_label = "middle interval"

[[record]]
mutant_name = "TGSDY Q121A"
qualitative_label = "low interval"

[[record]]
mutant_name = "TGHPY"
qualitative_label = "low interval"

[[record]]
mutant_name = "NGDRP P61N D64A"
qualitative_label = "high interval"

[[record]]
mutant_name = "SGDVP K104V"
qualitative_label = "middle interval"

[[record]]
mutant_name = "TGCAT"
qualitative_label = "low interval"

[[record]]
mutant_name = "NGAAP L107C"
qualitative_label = "high interval"

[[record]]
mutant_name = "SGDDP I90L D145A"
qualitative_label = "low interval"

[[record]]
mutant_name = "NMDDP L85I K104V"
qualitative_label = "high interval"

[[record]]
mutant_name = "NGDAP D64T Q127G"
qualitative_label = "middle interval"

[[record]]
mutant_name = "NGDDP D64K K104V R111A"
qualitative_label = "middle interval"

[[record]]
mutant_name = "NMDAK L107C"
qualitative_label = "high interval"


Where do these numbers come from? They come from the supplement of paper PMC12783771.
